The values you see were collected from patent US12509454B2.

system.under.test: Pol theta (1-899) (Homo sapiens (Human), UniProt O75417)
Sequence (O75417 1-899): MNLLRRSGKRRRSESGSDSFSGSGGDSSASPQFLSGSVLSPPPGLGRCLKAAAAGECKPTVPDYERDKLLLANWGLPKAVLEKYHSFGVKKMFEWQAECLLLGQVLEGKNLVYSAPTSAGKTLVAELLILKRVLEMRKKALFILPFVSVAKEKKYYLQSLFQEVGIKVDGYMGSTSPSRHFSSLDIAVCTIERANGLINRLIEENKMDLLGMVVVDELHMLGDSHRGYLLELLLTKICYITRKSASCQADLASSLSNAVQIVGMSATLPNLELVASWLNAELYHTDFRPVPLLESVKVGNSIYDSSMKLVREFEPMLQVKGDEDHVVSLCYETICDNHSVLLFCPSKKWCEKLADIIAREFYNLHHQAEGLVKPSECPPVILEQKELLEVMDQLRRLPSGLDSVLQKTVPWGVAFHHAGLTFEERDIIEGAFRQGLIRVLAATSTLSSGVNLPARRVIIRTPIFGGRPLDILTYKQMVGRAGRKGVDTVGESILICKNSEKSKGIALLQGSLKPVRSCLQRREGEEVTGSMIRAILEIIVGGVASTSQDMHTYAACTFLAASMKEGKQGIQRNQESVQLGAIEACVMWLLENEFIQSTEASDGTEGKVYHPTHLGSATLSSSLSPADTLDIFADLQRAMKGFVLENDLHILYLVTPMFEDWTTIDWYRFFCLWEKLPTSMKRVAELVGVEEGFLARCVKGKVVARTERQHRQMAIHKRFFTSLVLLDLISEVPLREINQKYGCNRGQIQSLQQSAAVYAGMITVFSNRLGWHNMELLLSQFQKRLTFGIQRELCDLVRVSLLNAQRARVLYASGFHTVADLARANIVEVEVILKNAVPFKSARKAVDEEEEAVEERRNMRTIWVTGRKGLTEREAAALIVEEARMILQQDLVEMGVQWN
protocol.description: Pol theta ATPase activity, NADH oxidation-coupled enzymatic assay
applied.conditions: Pol theta (1-899) 10 nM, ATP, dT50 ssDNA, absorbance 340 nm, 10-point dilution series; read-out: ATPase NADH coupling:Standard Screening:hPolQ IC50
Protocol: The ability of the compounds of Formula (I) to inhibit ATPase activity of Pol theta (1-899) was determined using the assay described below. Pol Theta ATPase activity was determined by measuring the rate of ATP turn over in a NADH oxidation-coupled enzymatic assay. 10-point dilution series of compounds were used in a 384 well format for the inhibition assays. […] The reaction was monitored for 30 min by measuring absorbance (λ=340 nm) in a Tecan Spark multimode plate reader every minute. […]
reported.property: IC50

Which IC50 value belongs to `O=C(Nc1nnc(OCc2ccc(Br)cn2)s1)c1cccnc1N1CCOCC1` ?
1000 to 10000 nM

O=C(Nc1nnc(OCc2ccc(Cl)cc2)s1)c1cccnc1N1CCN2C(=O)CC[C@@H]2C1 (single isomer, unassigned) ?
500 to 1000 nM

Do the same for `COc1ccccc1-c1ccncc1C(=O)Nc1nnc(OCC2CC2)s1` please
500 to 1000 nM

Try `O=C(Nc1nnc(OCc2ccc(Cl)cn2)s1)c1cnc(CO)cc1-c1ccccc1OC(F)F` next.
≤ 200 nM

Next record, please: `N#Cc1ccccc1-c1cnccc1C(=O)Nc1nnc(OCc2ccc(Cl)cc2)s1`
≤ 200 nM

`O=C(Nc1nnc(OCc2ccc(Cl)nc2)s1)c1cccnc1N1CCOCC1` ?
1000 to 10000 nM

How about `CN(C)C(=O)c1cc(N2CCOCC2)c(C(=O)Nc2nnc(OCc3ccc(Cl)cc3)s2)cn1` ?
1000 to 10000 nM

Also `C[C@@H]1COC[C@@H](C)N1c1cnccc1C(=O)Nc1nnc(OCc2ccc(Cl)cc2)s1` ?
≤ 200 nM

* * *

Test system Pol theta (1-899) (Homo sapiens (Human), UniProt O75417), pIC50 listed for each of the molecules.
pIC50: −log10 of the molar value.

Using the record for `COc1ccccc1-c1cnc(C#N)cc1C(=O)Nc1nnc(OCc2ccc(Cl)cc2)s1` , report its pIC50.
≥ 6.70

Subsequent entry: `O=C(Nc1nnc(OCc2ccc(Cl)cn2)s1)c1cccnc1N1CCC(F)(F)CC1`
5.00 to 6.00

And what about the molecule `O=C(Nc1nnc(OCc2ccc(Cl)cn2)s1)c1cccnc1-c1ccccc1Cl` ?
5.00 to 6.00

Now consider `COc1ccccc1-c1cc(C)ncc1C(=O)Nc1nnc(OCc2cccc(F)n2)s1` and answer again.
≥ 6.70

Another molecule to check: `COc1ccccc1-c1cnccc1C(=O)Nc1nnc(OCc2ccccc2)s1`
≥ 6.70

Record: `O=C(Nc1nnc(OCc2ccc(C3COC3)cc2)s1)c1cccnc1N1CCOCC1`
5.00 to 6.00

Please answer likewise for `COc1ccccc1-c1cc(C)ncc1C(=O)Nc1nnc(OCc2ccc(C3(C#N)CC3)cn2)s1`
≥ 6.70

Also `O=C(Nc1nnc(OCc2ccc(Cl)cc2)s1)c1ccncc1-c1ccccc1CCO` , if possible.
≥ 6.70

Also `O=C(Nc1nnc(OCc2ccc(Cl)cn2)s1)c1cccnc1N1CCOCC1` ?
5.00 to 6.00

Item: `O=C(Nc1nnc(OCc2ccc(Cl)cc2)s1)c1cncn1-c1cccnc1`
6.00 to 6.30

Request: `CS(=O)(=O)N1CCN(c2ncccc2C(=O)Nc2nnc(OCc3ccc(Cl)cn3)s2)CC1`
5.00 to 6.00

Field entry: `N#Cc1ccc(C(=O)Nc2nnc(OCc3ccc(Cl)cc3)s2)c(N2CCNC(=O)C2)n1`
≥ 6.70

Here is the next molecule: `C[C@@H]1COCCN1c1ncccc1C(=O)Nc1nnc(OCc2ccc(Cl)cn2)s1`
5.00 to 6.00

Another molecule: `COc1ccccc1-c1cc(CCC(N)=O)ncc1C(=O)Nc1nnc(OCc2ccc(Cl)cc2)s1`
≥ 6.70

Then what about the molecule `O=C(Nc1nnc(OCc2ccc(Cl)cn2)s1)c1ccncc1N1CCOC2(CC2)C1` ?
6.30 to 6.70

What about this molecule? `COc1ccccc1-c1cnc(F)cc1C(=O)Nc1nnc(OCc2ccc(Cl)cc2)s1`
≥ 6.70

Check `COc1cnccc1-c1cc(C)ncc1C(=O)Nc1nnc(OCc2ccc(Cl)cn2)s1` too.
≥ 6.70

Record: `COc1ccc(-n2cncc2C(=O)Nc2nnc(OCc3ccc(Cl)cc3)s2)cc1`
6.30 to 6.70

How about this molecule: `C[C@@H]1COCCN1c1ncccc1C(=O)Nc1nnc(OCc2ccc(Cl)cc2)s1`
6.30 to 6.70

Also, `COc1cnccc1-c1cnccc1C(=O)Nc1nnc(OCc2ccc(Cl)cc2)s1` please.
≥ 6.70

// query: `N#Cc1ccc(C(=O)Nc2nnc(OCc3ccc(Cl)cn3)s2)c(N2CCOCC2)n1`
6.30 to 6.70

What do you get for `O=C(Nc1nnc(OCc2ccc(Cl)cc2)s1)c1c[nH]c(=O)cc1N1CCOCC1` ?
5.00 to 6.00

And `O=C(Nc1nnc(OCc2ccc(Cl)cc2)s1)c1cccnc1-c1ccc(=O)[nH]c1` ?
6.00 to 6.30

For O=C(Nc1nnc(OCc2ccc(Cl)cc2)s1)c1ccncc1-c1ccccc1OC1CC(O)C1 (stereo not shown) then?
≥ 6.70

Would you mind doing `COc1cccc(F)c1-c1cc(C#N)ncc1C(=O)Nc1nnc(OCc2ccc(Cl)cn2)s1` as well?
≥ 6.70
